- Tested on: Pseudomonas fluorescens HPPD polypeptide (wild-type and mutants)
- test_details: Coupled HPPD activity assay: turnover and residual turnover in crude HPPD polypeptide extracts with and without Cmpd. 1
- Assay type: biochemical
- assay_conditions: absence of Cmpd. 1; changes in absorbance (OD) at 320 nm in the coupled assay, 30 min
Please enter rule met where Turnover is greater than or equal to 0.2, and rule not met where it is lower.

Hi, just wondering whether SEQ ID NO:50 (protein, mutant HPPD polypeptide) MADLYENPMGLMGFEFIEFASPTPGTLEPIFEIMGFTKVATHRSKNVHLYRQGEINLILNNEPNSIASYFAAEHGPSVCGMAFRVKDSQKAYNRALELGAQPIHIDTGPMELNLPAIKGIGGAPLYLIDRFGEGSSIYDIDFVYLEGVERNPVGAGLKVIDHLTHNVYRGRMVYWANFYEKLFNFREARYFDIKGEYTGLTSKAMSAPDGMIKIPLNEESSKGAGQIEEFLMQFNGEGIQHVAFLTDDLVKTWDALKKIGMRFMTAPGDEYYEMLEGRLPDHGEPVDQLQARGILLDGSSVEGDKRLLLQIFSETLMGPVFFEFIQRKGDDGFGPHSFKVLFESIERDQVRRGVLTAD shows Turnover of 0.2 or higher.
rule met

Entry to check: SEQ ID NO:46 (protein, mutant HPPD polypeptide) MADLYENPMGLMGFEFIEFASPTPGTLEPIFEIMGFTKVATHRSKNVHLYRQGEINLILNNEPNSIASYFAAEHGPSVCGMAFRVKDSQKAYNRALELGAQPIHIDTGPMELNLPAIKGIGGAPLYLIDRFGEGSSIYDIDFVYLEGVERNPVGAGLKVIDHLTHNVYRGRMVYWANFYEKLFNFREARYFDIKGEYTGLTSKAMSAPDGMIKIPLNEESSKGAGQIEEFLMQFNGEGIQHVAFLTDDLVKTWDALKKIGMRFMTAPGDEYYEMLEGRLPDHGEPVDQLQARGILLDGSSVEGDKRLLLQIFSEKLMGPVFFEFIQRKGDDGFGPDSFKVLFESIERDQVRRGVLTAD
rule not met

Entry to check: SEQ ID NO:37 (protein, mutant HPPD polypeptide) MADLYENPMGLMGFEFIEFASPTPGTLEPIFEIMGFTKVATHRSKNVHLYRQGEINLILNNEPNSIASYFAAEHGPSVCGMAFRVKDSQKAYNRALELGAQPIHIDTGPMELNLPAIKGIGGAPLYLIDRFGEGSSIYDIDFVYLEGVERNPVGAGLKVIDHLTHNVYRGRMVYWANFYEKLFNFREARYFDIKGEYTGLTSKAMSAPDGMIRIPLNEESSKGAGQIEEFLMQFNGEGIQHVAFLTDDLVKTWDALKKIGMRFMTAPGDEYYEMLEGRLPDHGEPVDQLQARGILLDGSSVEGDKRLLLQIFSERLMGPVFFEFIQRKGDDGFGPHSFKVLFEQMERDQVRRGVLTAD
rule not met

Entry to check: SEQ ID NO:8 (protein, mutant HPPD polypeptide) MADLYENPMGLMGFEFIEFASPTPGTLEPIFEIMGFTKVATHRSKNVHLYRQGEINLILNNEPNSIASYFAAEHGPSVCGMAFRVKDSQKAYNRALELGAQPIHIDTGPMELNLPAIKGIGGAPLYLIDRFGEGSSIYDIDFVYLEGVERNPVGAGLKVIDHLTHNVYRGRMVYWANFYEKLFNFREARYFDIKGEYTGLTSKAMSAPDGMIRIPLNEESSKGAGQIEEFLMQFNGEGIQHVAFLTDDLVKTWDALKKIGMRFLTAPGDEYYEMLEGRLPDHGEPVDQLQARGILLDGSSVEGDKRLLLQIFSEQLMGPVFFEFIQRKGDDGFGPDSFKVLFESIERDQVRRGVLTAD
rule not met

Entry to check: SEQ ID NO:12 (protein, mutant HPPD polypeptide) MADLYENPMGLMGFEFIEFASPTPGTLEPIFEIMGFTKVATHRSKNVHLYRQGEINLILNNEPNSIASYFAAEHGPSVCGMAFRVKDSQKAYNRALELGAQPIHIDTGPMELNLPAIKGIGGAPLYLIDRFGEGSSIYDIDFVYLEGVERNPVGAGLKVIDHLTHNVYRGRMVYWANFYEKLFNFREARYFDIKGEYTGLTSKAMSAPDGMIRIPLNEESSKGAGQIEEFLMQFNGEGIQHVAFLTDDLVKTWDALKKIGMRFMTAPGDEYYEMLEGRLPDHGEPVDQLQARGILLDGSSVEGDKRLLLQIFSERLMGPVFFEFIQRKGDDGFGPDSFKVLFEQIERDQVRRGVLTAD
rule not met

Entry to check: SEQ ID NO:26 (protein, mutant HPPD polypeptide) MADLYENPMGLMGFEFIEFASPTPGTLEPIFEIMGFTKVATHRSKNVHLYRQGEINLILNNEPNSIASYFAAEHGPSVCGMAFRVKDSQKAYNRALELGAQPIHIDTGPMELNLPAIKGIGGAPLYLIDRFGEGSSIYDIDFVYLEGVERNPVGAGLKVIDHLTHNVYRGRMVYWANFYEKLFNFREARYFDIKGEYTGLTSKAMSAPDGMIRIPLNEESSKGAGQIEEFLMQFNGEGIQHVAFLTDDLVKTWDALKKIGMRFLTAPGDEYYEMLEGRLPDHGEPVDQLQARGILLDGSSVEGDKRLLLQIFSEQLMGPVFFEFIQRKGDDGFGPHSFKVLFESIERDQVRRGVLTAD
rule met

Entry to check: SEQ ID NO:41 (protein, mutant HPPD polypeptide) MADLYENPMGLMGFEFIEFASPTPGTLEPIFEIMGFTKVATHRSKNVHLYRQGEINLILNNEPNSIASYFAAEHGPSVCGMAFRVKDSQKAYNRALELGAQPIHIDTGPMELNLPAIKGIGGAPLYLIDRFGEGSSIYDIDFVYLEGVERNPVGAGLKVIDHLTHNVYRGRMVYWANFYEKLFNFREARYFDIKGEYTGLTSKAMSAPDGMIKIPLNEESSKGAGQIEEFLMQFNGEGIQHVAFLTDDLVKTWDALKKIGMRFMTAPGDEYYEMLEGRLPDHGEPVDQLQARGILLDGSSVEGDKRLLLQIFSERLMGPVFFEFIQRKGDDGFGPDSFKVLFESMERDQVRRGVLTAD
rule met
